Read-out: Interleukin-1 alpha (IL1a), IL1A (gene 3552)
experiment description: BSK_BE3C_IL1a: BioMAP Diversity Plus: BE3C Assay for Interleukin-1 alpha (IL1a) Biomarker Activity (AID 2283016)
test conditions: primary human bronchial epithelial cells; actives raise or lower the signal
Activity calls are given as the source filed them. How the source made its calls: active means hit-call score of the fitted dose curve at least 0.9, where 1 is the maximum; inactive means score below 0.9.
Write down the outcome that applies. Available outcomes: active, inactive

Task: Outcome? "CCCCCCCCCCCC(=O)N(C)CC(=O)O"
Result: inactive

Task: Query: recorded result category for "CC=C(C)C=CC=C(C)C" in this test
Result: inactive

Task: What outcome does the record of this test show for "CC/C=C\C/C=C\C/C=C\CCCCCCCC(=O)OC" ?
Result: active

Task: For this compound, state the assay outcome: "C=CCCCCCCCCC=O"
Result: inactive

Task: Which outcome did this test record for the compound "Nc1ccc(C(=O)O)cc1" ?
Result: inactive

Task: Give the logged outcome of this assay for the following compound: "CCOC(=O)/C=C\C(=O)OCC"
Result: inactive

Task: Hi, do you know how "Nc1nc(N)nc(-c2ccccc2)n1" came out in this test?
Result: inactive

Data provenance is PubChem BioAssay (EPA / NIEHS).
